src = patent US20250188176A1

Consider the following binders; for each one, report its kon.
# target system: T1, Extracellular domain (ECD) of the canine IL-4 receptor alpha-V5 epitope-AviTag-His Tag (canine)
# T1 construct: monomeric form isolated by size exclusion; also called canine IL-4RA-V5-Avi-His; canine IL-4RA
# T1 chain: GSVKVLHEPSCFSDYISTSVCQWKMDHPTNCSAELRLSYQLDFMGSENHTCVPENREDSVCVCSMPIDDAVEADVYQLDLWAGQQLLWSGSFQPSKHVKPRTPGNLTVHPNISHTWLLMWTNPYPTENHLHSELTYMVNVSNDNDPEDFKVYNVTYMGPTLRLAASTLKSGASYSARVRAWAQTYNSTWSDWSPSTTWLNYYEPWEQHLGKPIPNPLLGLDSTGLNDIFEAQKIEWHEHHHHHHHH
# assay: SPR, Fab-SASA captured on BSA;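 further: biacore T200 SPR, Fab-SASA variants from E. coli conditioned medium captured on BSA-coated CM5 chip, canine IL-4RA injected 120 s then 420 s dissociation, 1:1 model fit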
Numbers only, in M⁻¹ s⁻¹.

For orientation, consider the following solved cases.
# binder, kon [M⁻¹ s⁻¹]
data = [
    ("TB640_005 Fab-SASA VH-L50F (Fab, V domains shown, not shown: SASA tag then His-tag) VH: EVQLVESGGDLVKPGGSLRLSCVASGFTFRDYAMTWVRQAPGKGLQWVSFISGSGGKTYYADAVKGRFTISRDNAKNTLYLQMNSLRAEDTAVYYCAVDRLTKTIRPQYYGLWVWGQGTLVTVSS VL: DIVMTQTPLSLSVSPGETASISCRSSQSLLYSIGYNYLDWYLQKPGQSPQGLIYLGSKRASGVPDRFSGSGSGTDFTLRISRVEANDTGVYYCMQGLQSPLTFGQGTKLEIKR", 128000),
    ("TB640_005 Fab-SASA VH-K103I (Fab, V domains shown, not shown: SASA tag then His-tag) VH: EVQLVESGGDLVKPGGSLRLSCVASGFTFRDYAMTWVRQAPGKGLQWVSLISGSGGKTYYADAVKGRFTISRDNAKNTLYLQMNSLRAEDTAVYYCAVDRLTITIRPQYYGLWVWGQGTLVTVSS VL: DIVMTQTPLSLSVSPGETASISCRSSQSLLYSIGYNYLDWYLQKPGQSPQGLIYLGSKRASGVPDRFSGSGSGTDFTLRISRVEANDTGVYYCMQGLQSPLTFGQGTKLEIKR", 51900),
]

Note: attention shifts to another entry.
kon for TB640_005 Fab-SASA VL-Q27E (Fab, V domains shown, not shown: SASA tag then His-tag) VH: EVQLVESGGDLVKPGGSLRLSCVASGFTFRDYAMTWVRQAPGKGLQWVSLISGSGGKTYYADAVKGRFTISRDNAKNTLYLQMNSLRAEDTAVYYCAVDRLTKTIRPQYYGLWVWGQGTLVTVSS VL: DIVMTQTPLSLSVSPGETASISCRSSESLLYSIGYNYLDWYLQKPGQSPQGLIYLGSKRASGVPDRFSGSGSGTDFTLRISRVEANDTGVYYCMQGLQSPLTFGQGTKLEIKR is 65300
